test system: NCI-H226 lung; test: NCI tumour cell line growth inhibition, 48 h
Experimental Endpoint: TGI

Compound: CNC(=S)N/N=C(\C)c1ccc(OC)cc1O
TGI: > 100 µM
--
Compound: O=c1cc(-c2ccccc2)oc2cc(OCc3cn(Cc4ccc(F)cc4)nn3)cc(O)c12
TGI: > 100 µM
--
Compound: COc1cccc(C(=O)O)c1Cc1cccc2ccccc12
TGI: > 100 µM
--
Compound: CC(=O)[CH-]C(=O)c1ccccc1.CC(=O)[CH-]C(=O)c1ccccc1.CC(C)CCCC(C)[C@H]1CCC2[C@@H]3CCC4C[C@@H]([O-])CC[C@]4(C)C3CC[C@@]21C.CC(C)CCCC(C)[C@H]1CCC2[C@@H]3CCC4C[C@@H]([O-])CC[C@]4(C)C3CC[C@@]21C.Cl.[Ti+4] (stereo partly specified)
TGI: > 25 µM
--
Compound: CCN(CC)CC1CCCCN1CC(=O)N1c2ccc(Br)cc2C(=O)Nc2cccnc21 (stereo unspecified)
TGI: > 100 µM

get_value(item= COc1ccccc1OCc1nnc(SCC(=O)O)n1-c1ccccc1 , readout=TGI) returns > 100 µM

----------
This section presents molecules with their documented TGI values.
tested on: HOP-18 NSCLC; experiment: NCI tumour cell line growth inhibition, 48 h

# count of solved cases: 2
Molecule: c1ccc2c(c1)[Se]c1ccccc1[Se]2
Target System: HOP-18 NSCLC
TGI: 98.6 µM
--
Molecule: CCOC(=O)NC(=O)c1cn(-c2ccc(CCOC(=O)CCCCCCCCC(=O)OCCc3ccc(-n4cc(C(=O)NC(=O)OCC)c(=O)[nH]c4=O)cc3)cc2)c(=O)[nH]c1=O
Target System: HOP-18 NSCLC
TGI: > 100 µM

Consider the record given below.
Just so you know, measured TGI for CN(C)CC1CCC(CN(C)C)C1=NO (stereo not drawn) came out at > 100 µM

----------
system: BT-549 breast; experiment: NCI tumour cell line growth inhibition, 48 h
Entries and their measured TGI follow.

Recorded results for 3 compounds are shown here.
Compound: Oc1ccc2ccccc2c1N=Nc1ccc(N=Nc2ccccc2)cc1
TGI: > 100 µM
--
Compound: O=C(Nc1ccccc1)N1CC(CN2CCN(c3ccccc3)CC2)OC1=O (centres undefined)
TGI: > 100 µM
--
Compound: CC(C)C(OC(=O)c1cc(NC(=S)c2ccccc2)ccc1Cl)C(C)C
TGI: 91.1 µM

# TGI (compound: O=C1C=CC(=O)c2c(O)c(Nc3ccc(OC(F)(F)F)cc3)c(Cl)c(O)c21 ) is 3.12 µM

Entry under test: CN[C@@H]1[C@H](O)[C@H](NC)[C@H]2O[C@@]3(O)C(=O)C[C@@H](C)O[C@H]3O[C@@H]2[C@H]1O . Its TGI was > 100 µM

Entry COC(=O)C1=C(O)C(C(=O)OC)[C@@]2(O)[C@@H](C(=O)OC)C(c3ccc(OC(=O)/C(=C/c4ccccc4)c4ccccc4)cc3)C[C@@H]1[C@@H]2C(=O)OC (some centres undefined) , TGI reported as > 100 µM

// COc1cc(/C=C\c2cc(/C=C\c3ccc(O)c(OC)c3)n(C(=O)Nc3ccc(C(F)(F)F)cc3)n2)ccc1O : TGI value = 3.67 µM

GET /value?item= C1CSCCSS[C@@H]2CCCCC2SC1 (some centres undefined) &field=TGI returns > 100 µM

Data point: COc1cccc2c1C(=O)c1c(O)c3c(c(O)c1C2=O)C[C@@](O)(C(=O)COC(=O)c1cccnc1)C[C@@H]3OC1CC(N)C(O)C(C)O1 (some centres undefined) ; TGI = 1.02 µM

This collection of values is drawn from PubChem BioAssay (NCI).
